- assay: Thermal stability of dioxetanes: first order decay of chemiluminescence of dilute solutions in xylene at several temperatures
- Assay type: physicochemical
- measurement_setup: thermal decomposition (Table 4; temperature not given)
metric_name: t1/2
In your response, put the unit directly after the numeric value.

COC1(c2cccc(O[Si](C)(C)C(C)(C)C)c2)OOC1(C1CCCCC1)C1CCCCC1 (stereo not shown) : 1.7 yr
COC1(c2cccc(O)c2)OOC1(C1CCCCC1)C1CCCCC1 (stereo not shown) : 1.1 yr
COC1(c2cccc(OC(C)=O)c2)OOC1(C(C)C)C(C)C (stereo not shown) : 1.2 yr

Turning now to a further record.
Prompt: Fill in the blank: the reported t1/2 of COC1(c2cccc(O[Si](C)(C)C(C)(C)C)c2)OOC12C1CC3CC(C1)CC2C3 (stereo not shown) is ____.
Response: 3.8 yr
